Listed compounds paired with reported log10(IC50)
Target: DNA gyrase (Escherichia coli, UniProt P0AES4+P0AES6)
Experiment: Inhibition of Escherichia coli DNA gyrase
Annotation: log10 of IC50, nM basis.

# count of solved cases: 5
> print(dat)
                               smiles.input  reading
1  COc1ccc2c3conc3c(=O)n(CCN3CCC(NCc4ccc5c(n4)NC(=O)CO5)CC3)c2c1     2.62
2  O=C1COc2ccc(CNC3CCN(CCn4c(=O)c5ncoc5c5ccc(F)cc54)CC3)nc2N1     2.63
3  O=C(O)CNC(=O)Cc1csc(NC(=O)c2cc(Br)c(Br)[nH]2)n1     4.20
4  O=C(O)c1ccc(CNC(=O)[C@H](Cc2ccc(O)cc2)NC(=O)c2cc(Br)c(Br)[nH]2)cc1     2.79
5  COC(=O)CNC(=O)c1ccc(NC(=O)c2cc(Cl)c(Cl)[nH]2)c(OCC(C)C)c1     3.36

Item: COc1ccc2c3conc3c(=O)n(CCN3CCC(NCc4nc5c(cc4F)OCC(=O)N5)CC3)c2c1 | log10(IC50): 2.60

Item: O=C1COc2ccc(CNC3CCN(CCn4c(=O)c5nocc5c5ccc(F)cc54)CC3)nc2N1 | log10(IC50): 2.63

Item: COC(=O)c1ccc(CNC(=O)[C@H](Cc2ccc(O)cc2)NC(=O)c2cc(Br)c(Br)[nH]2)cc1 | log10(IC50): 2.99

Item: O=C(O)C(=O)Nc1ccc(NC(=O)c2cc(Br)c(Br)[nH]2)cc1 | log10(IC50): 2.26

Item: CCNC(=O)Nc1nc2ccc(NC(=O)Cc3csc(NC(=O)OC(C)(C)C)n3)cc2s1 | log10(IC50): 3.59

Item: COc1cc(C(=O)NCC(=O)O)ccc1NC(=O)c1cc(Cl)c(Cl)[nH]1 | log10(IC50): 2.08
